Experiment: Pharmacokinetic evaluation in C57BL/6 mice, brain tissues and plasma
Assay type: in vivo
Settings: male, C57BL/6, mouse, oral, 5 mg/kg, brain tissues, read-out: T1/2 Brain Tissues (converted)
readout kind: half-life (min)

INSERT INTO measurements (smiles_repr, test_result) VALUES
  ('COc1nc(N2CC3(COC3)C2)ccc1Nc1ncc(Cl)c(Nc2ccccc2P(C)(C)=O)n1', 23.4),
  ('COc1nc(N2CC3(CCOC3)C2)ccc1Nc1ncc(Cl)c(Nc2ccccc2P(C)(C)=O)n1', 21.6),
  ('COc1nc(N2CC3(CC(OC)C3)C2)ccc1Nc1ncc(Cl)c(Nc2ccccc2P(C)(C)=O)n1', 22.2),
  ('COc1nc(N2CC3(C2)CC(F)(F)C3)ccc1Nc1ncc(Cl)c(Nc2ccccc2P(C)(C)=O)n1', 43.2),
  ('COc1nc(N2CC3(C2)CC3(F)F)ccc1Nc1ncc(Cl)c(Nc2ccccc2P(C)(C)=O)n1', 37.8);

###

Test: Pharmacokinetic evaluation in C57BL/6 mice, brain tissues and plasma
Assay type: in vivo
Details: oral, 5 mg/kg, brain tissues
readout kind: Cmax Brain Tissues (nM)

INSERT INTO results (smiles_repr, test_result) VALUES
  ('COc1nc(N2CC3(CCOC3)C2)ccc1Nc1ncc(Cl)c(Nc2ccccc2P(C)(C)=O)n1', 604),
  ('COc1nc(N2CC3(CC(OC)C3)C2)ccc1Nc1ncc(Cl)c(Nc2ccccc2P(C)(C)=O)n1', 698),
  ('COc1nc(N2CC3(C2)CC(F)(F)C3)ccc1Nc1ncc(Cl)c(Nc2ccccc2P(C)(C)=O)n1', 726),
  ('COc1nc(N2CC3(CCC3)C2)ccc1Nc1ncc(Cl)c(Nc2ccccc2P(C)(C)=O)n1', 2042),
  ('COc1nc(N2CC3(CCOCC3)C2)ccc1Nc1ncc(Cl)c(Nc2ccccc2P(C)(C)=O)n1', 217),
  ('COc1nc(N2CC3(COC3)C2)ccc1Nc1ncc(Cl)c(Nc2ccccc2P(C)(C)=O)n1', 576),
  ('COc1nc(N2CC3(C2)CC3(F)F)ccc1Nc1ncc(Cl)c(Nc2ccccc2P(C)(C)=O)n1', 1436);

###

Experiment: Pharmacokinetic evaluation in C57BL/6 mice, brain tissues and plasma
Type: in vivo
Conditions: male, C57BL/6, mouse, oral, 5 mg/kg, plasma, read-out: T1/2 Plasma (converted)
readout kind: half-life (min)

INSERT INTO results (smiles_repr, readout_kind, unit_of_measure, test_result) VALUES
  ('COc1nc(N2CC3(COC3)C2)ccc1Nc1ncc(Cl)c(Nc2ccccc2P(C)(C)=O)n1', 'half-life', 'min', 36),
  ('COc1nc(N2CC3(CCOCC3)C2)ccc1Nc1ncc(Cl)c(Nc2ccccc2P(C)(C)=O)n1', 'half-life', 'min', 35.4),
  ('COc1nc(N2CC3(CC(OC)C3)C2)ccc1Nc1ncc(Cl)c(Nc2ccccc2P(C)(C)=O)n1', 'half-life', 'min', 28.2),
  ('COc1nc(N2CC3(C2)CC3(F)F)ccc1Nc1ncc(Cl)c(Nc2ccccc2P(C)(C)=O)n1', 'half-life', 'min', 45),
  ('COc1nc(N2CC3(CCOC3)C2)ccc1Nc1ncc(Cl)c(Nc2ccccc2P(C)(C)=O)n1', 'half-life', 'min', 33.6),
  ('COc1nc(N2CC3(C2)CC(F)(F)C3)ccc1Nc1ncc(Cl)c(Nc2ccccc2P(C)(C)=O)n1', 'half-life', 'min', 58.8);

Every entry's value here was drawn from patent US11046720B2.
